System: UO-31 renal
Assay: NCI tumour cell line growth inhibition, 48 h
Observable: TGI

Value of TGI reported for the molecule CC(=O)CC(N)=O is > 100 µM

Value of TGI reported for the molecule C=C(C)[C@@H]1CC[C@]2(C(=O)O)CC[C@]3(C)[C@H](CC[C@@H]4[C@@]5(C)CCC(NC(=O)c6cccc(OC(C)=O)c6OC(C)=O)C(C)(C)[C@@H]5CC[C@]43C)[C@@H]12 (some centres undefined) is 1.43 µM

Value of TGI reported for the molecule C/C(=N\n1c(Cc2ccccc2)n[nH]c1=O)c1ccccc1 is > 100 µM

Value of TGI reported for the molecule COc1ccc(S(=O)(=O)NC(CCC(=O)NN)C(=O)NN)cc1 (centres undefined) is > 100 µM

Value of TGI reported for the molecule CCn1c(SCC(=O)N/N=C/c2ccccc2)nc2ccccc2c1=O is > 100 µM

Value of TGI reported for the molecule COc1cc(-c2ccc(-c3ccc(C(=N)N)nc3)s2)cc(OC)c1OC is 3.4 µM

Value of TGI reported for the molecule O=C1NC(=O)C(c2ccccc2Cl)=C1Nc1cc(Cl)c(O)c(Cl)c1 is > 25 µM

Value of TGI reported for the molecule COc1ccc(N2C(=O)[C@H]3[C@H]4CC(C(C)(C)C)CC[C@H]4c4c(n(C)c5ccccc45)[C@H]3C2=O)cc1 (some centres undefined) is > 100 µM

Value of TGI reported for the molecule C=C1C(=O)O[C@H]2[C@H]1CC/C(COC(=O)c1cc3ccccc3o1)=C\CC[C@@]1(C)O[C@@H]21 is 2.79 µM

====

Tested on: SNB-75 CNS
Assay: NCI tumour cell line growth inhibition, 48 h
Record form. Attribute: TGI. Fill in for each entry.
# value in µM; strip the unit string

TGI on SNB-75 CNS for CC(C)C[C@H](NC(=O)Cn1ccc(NCc2ccccc2)cc1=O)B(O)O is 9.72

TGI on SNB-75 CNS for Cc1cccc2c1C(=O)[C@](C)([C@]1(C)Nc3cccc(C)c3C1=O)N2 is 41.2

====

Record form. Attribute: TGI. Fill in for each entry.
Test system: SNB-78 CNS
Assay: NCI tumour cell line growth inhibition, 48 h

TGI on SNB-78 CNS for COc1ccc(NC(=O)CC/C(CC(=O)C(C)(C)C)=N\NC(=O)C(=O)NN)cc1 is > 100 µM

TGI on SNB-78 CNS for COc1cc2cc3c4cc(OC)c(OC)cc4cc[n+]3cc2cc1OC is > 100 µM

TGI on SNB-78 CNS for CN1CC(=O)N(C)c2ncn(Cc3ccccc3)c2C1=O is > 100 µM

TGI on SNB-78 CNS for O=C1[C@H]2ON(c3ccccc3)C(c3ccccc3)[C@H]2C(=O)N1c1ccc(Cc2ccc(N3C(=O)[C@@H]4ON(c5ccccc5)C(c5ccccc5)[C@@H]4C3=O)cc2)cc1 (stereo partly specified) is > 100 µM

TGI on SNB-78 CNS for C=C1C(=O)OC2C1CCC(C)C1C=CC(=O)C12C (stereo unspecified) is 23.3 µM

TGI on SNB-78 CNS for O=C(O)NC(c1ccccc1)C(NC(=O)c1ccccc1)c1ccccc1 (stereo unspecified) is > 100 µM

====

Test system: SF-295 CNS
Experiment: NCI tumour cell line growth inhibition, 48 h
Where a SMILES comes first, the peptide text is derived from it. [ ]: non-standard residue; d: D form. The star is where a group is joined. Iva = CC[C](C)(N)C(=O)O; Boc = CC(C)(C)OC(=O)*; X52 = C1CCC(=NO*)C1
Record form. Attribute: TGI. Fill in for each entry.

Value of TGI reported for the compound C=C1C(=O)O[C@@H]2[C@@H]3O[C@@H](C[C@@H]13)[C@](C)(O)CC/C=C(\C)CCC[C@@H]2C is 44.7 µM

Value of TGI reported for the compound COc1ccc(N2C(=O)[C@H]3[C@H]4CC(C(C)(C)C)CC[C@H]4c4c(n(C)c5ccccc45)[C@H]3C2=O)cc1 (stereo partly specified) is > 100 µM

Value of TGI reported for the compound CC[C@@H]1C(=O)OC[C@@H]1Cc1cncn1C is > 100 µM

Value of TGI reported for the compound CCC(C)(NC(=O)C(C)NC(=O)OC(C)(C)C)C(=O)NC(C)C(=O)NC(C)(CC)C(=O)ON=C1CCCC1 (stereo unspecified) (Boc-A[Iva]A[Iva]-X52; configuration not given here) is > 100 µM

Value of TGI reported for the compound C/C=C1\C=C(OC)CN(CCc2c[nH]c3ccccc23)C1 is > 100 µM

Value of TGI reported for the compound C=C1C(=O)O[C@H]2[C@H]1CC/C(COC(=O)C(=O)c1cn(C)c3ccc(Cl)cc13)=C\CC[C@@]1(C)O[C@@H]21 is 10.3 µM

Value of TGI reported for the compound Nc1nc(N)c2cc(-c3ccccc3)cnc2n1 is 33 µM

Value of TGI reported for the compound O=C(O)C1CCCCC1C(=O)Nn1cnnc1 (stereo unspecified) is > 100 µM

Value of TGI reported for the compound COc1ccc(C(=O)C(C(=O)CC(=O)Nc2cccc(C(F)(F)F)c2)c2ccc(OC)cc2)cc1 (stereo unspecified) is > 100 µM

Value of TGI reported for the compound CN(C)CCCNc1ccc2c(=O)n(CCN(C)C)c(=O)n3c4ccccc4c(=O)c1c23 is 1.69 µM

Value of TGI reported for the compound O=C(Nc1ccccc1)c1cc2ccccc2c(N=Nc2ccc([N+](=O)[O-])cc2)c1O is > 100 µM

Value of TGI reported for the compound Cc1n[nH]c(=O)n1/N=C/c1ccc(F)cc1 is > 100 µM

Value of TGI reported for the compound O=C(O)Cc1cc(=O)[nH]c2c1/C(=N/O)CCC2 is > 100 µM

Value of TGI reported for the compound COc1cc2c(cc1OC)-c1ccc3cc4c(cc3c1N(CCCn1ccnc1)C2)OCO4 is 75.6 µM

Value of TGI reported for the compound NC1CCC(Nc2nc(NCc3ccc(-c4ccccc4O)nc3)c3ncn(C4CCCC4)c3n2)CC1 (stereo unspecified) is 0.219 µM

Value of TGI reported for the compound C1CCCCC2(CCCCCCCCC3(CCC1)OCCO3)OCCO2 is > 100 µM

Value of TGI reported for the compound C=CC1CCC[N+]1(CC(=O)OCC)Cc1ccccc1 (stereo unspecified) is > 100 µM

Value of TGI reported for the compound O=C1CC(=O)N(C(=O)c2nn(-c3ccc(Cl)cc3)cc2O)N1 is > 100 µM

Value of TGI reported for the compound CC(=O)OC1CCn2nnc(CO)c21 (stereo unspecified) is > 100 µM

Value of TGI reported for the compound CC12CCC(C(Nc3cc(C(F)(F)F)cc(C(F)(F)F)c3)C1=O)C2(C)C (stereo unspecified) is > 100 µM

Value of TGI reported for the compound CC(=O)CC(N)=O is > 100 µM
